Source: PubChem BioAssay (Tox21)

Assay: qHTS RealTime-Glo MT Cell Viability Assay in HEK293 cells - 40 hour (AID 1224874); further: on the % scale 0 is the no-effect control and ±100 the full control effect; nearly all actives have a fitted effect of over 50% in size
Details: RealTime-Glo luminescence, hits give low values
Inconclusive results are not listed.
propertyLabel: max response (%)
Number only, in %; omit the unit.

The cases that follow already have their max response on record.
| compound | scaleUnit | reportedMeasurement |
| --- | --- | --- |
| CNC(C)=O | % | -0.0492 |
| O=S(=O)(O)c1ccc(Cl)cc1 | % | 0.949 |
| CCCCN=C(N)N=C(N)N | % | -14.6 |
| N#Cc1ccccc1C#N | % | 4.47 |

The reported value for Cc1nnc(C(=O)NC(C)(C)c2nc(C(=O)NCc3ccc(F)cc3)c(O)c(=O)n2C)o1 in terms of max response is 21.7

Lookup result for CCCCCCCCS(=O)(=O)O ; measured max response: -0.584

According to the records, this compound CO/N=C(\C(=O)O)c1csc(NC(=O)CCl)n1 displays max response of 0.384
